method: protein stability index of a GFP-peptide fusion (yeast GPS) (PSI 1-4); higher = more stable; sorted into four equal gates, so the index is relative within each strain
measurement setup: pdr5∆
metric: protein stability index

chain="EIFDVTSNGLKKNPNWL [FAS1]" recorded_value=3.46
chain="NASLTIEDEDEPFNAGI [SMC1]" recorded_value=3.15
chain="SPIPFPPLTYKNDTKIL [PRP8]" recorded_value=2.56
chain="QSSEDVITIKSRIRVKI [RPB7]" recorded_value=2.41
chain="ADTGRDDTKETVYISSI [RPN11]" recorded_value=3.28

Batch request: protein stability index for each of the following sequences.
1. ALSLLYHLLNYDPIKRI [SSN3]
2. PNTSDNNNNSNNHNMRN [SWI1]
3. AYRTDVIQALGGIETIL [PRP8]
4. PMLMANNDVFTIGPYRA [SSN3]
5. NSSTSPAPSIPSTGFKF [YLR335W/NUP2]
6. DTLKDISTSFCFICLLH [BRN1]

result:
1: 2.05; 2: 3.02; 3: 1.54; 4: 3.3; 5: 2.5; 6: 2.44

Batch request: protein stability index for each of the following sequences.
1. KTDLELLVERLKEDDSS [RPN1]
2. ESKMRQQEAKYRNNEPA [YDL088C/ASM4]
3. AFEAELSNIPLLLITHH [ARP9]
4. GNMGITTEMLDKLMVTS [MED6]
5. VKTKTIELIDYDKLPAG [RET1]
6. IDVMKSQIIPLMKKACY [SNU114]
7. TLGNLIRAELLNDRKVL [RPB11]

result:
[3.3, 3.12, 1.68, 3.55, 3.42, 2, 2.74]

Batch request: protein stability index for each of the following sequences.
1. GDYSQATVLSRKILKKT [RPN5]
2. DDDNSNVDYYNVAHRIK [SNF2]
3. PRLEKLINEILLKSNDP [RGR1]

result:
1: 2.87; 2: 3.15; 3: 2.01

Batch request: protein stability index for each of the following sequences.
1. TSFEQGEITFDGIGGLT [RPT4]
2. ELKINLPLTEHKSPNLS [SRB4]
3. VYKIYNHVMPLKPVDKL [SIN4]
4. LRNWEELNIIPRDLLRV [PRP28]

result:
1. 3.18
2. 3.17
3. 1.97
4. 1.35

Batch request: protein stability index for each of the following sequences.
1. KSVRILKNKAEYLKNCP [RPC40]
2. TAKKDMSSTTPKLESVK [SNF12]
3. HSLREYINGKATALANL [RPO31]
4. KQTAAYRTPGSSGVLSS [SSN2]
5. FLDSQRVWAEYATKRQE [PRP8]
6. GVDDQILATNSLRILAK [YJL039C/NUP192]

result:
1. 3.19
2. 3.35
3. 3.21
4. 3.04
5. 2
6. 3.08

---

What protein stability index was measured for each of the following?
method: protein stability index of a GFP-peptide fusion (yeast GPS) (PSI 1-4); higher = more stable; sorted into four equal gates, so the index is relative within each strain
measurement setup: doa10∆
One number for each entry.

Batch request: protein stability index for each of the following sequences.
1. SVRLFSFLDPLNYGNIC [YJL039C/NUP192]
2. LHGLTPTAKDVEVIKQL [GAL11]
3. LDTFIKIDGNPDELIKA [PRE5]
4. KKVVIVKPHDEGSKSHP [RPL27A]
5. TVRKSIACVLTVINEQQ [RPL35A]
6. MKQPYVFVKKHHELIKV [SSN2]
7. VRQKIKTLKRMIKESST [POP1]

result:
1: 1.88; 2: 3.08; 3: 3.19; 4: 2.87; 5: 1.62; 6: 1.33; 7: 1.47

Batch request: protein stability index for each of the following sequences.
1. VTPTKTEVIIRATRTQD [RPS3]
2. SYLISHKDSFYDRATLT [RPO31]
3. RIGKHRKHPGGRGMAGG [RPL28]
4. TSDLVKSLGLKLPLSVI [RPS17A]
5. IKVENLNDTTEKSKALE [SMC2]
6. IRKLLEKINRMIIFLKN [CSI1]
7. TYSTPKRPYESSRLDAE [RPS9A]
8. SPEEQRSLLQEAIETCK [GAL11]

result:
1: 1.86; 2: 2.43; 3: 2.92; 4: 1.12; 5: 3.07; 6: 1.81; 7: 2.97; 8: 1.88

---

method: protein stability index of a GFP-peptide fusion (yeast GPS) (PSI 1-4); higher = more stable; sorted into four equal gates, so the index is relative within each strain
measurement setup: pdr5∆
metric: protein stability index
Answers are plain numbers.

Batch request: protein stability index for each of the following sequences.
1. GGVDVGPSVESYELRNT [SNF5]
2. YTDELEEDVYLDPLARV [FAS2]
3. KAKRAKTGSASTVKGSV [TAF14]
4. SKDGLPNKVKTEDIRIR [RRP6]
5. VKLQMIKFGGLIIQKIP [ECM29]
6. AARHKQHEQGTFEKHDR [RRI2]
7. ELKDLETQVEVEKNEIG [NNF1]

result:
3.15
3.32
2.66
2.91
1.89
3.04
3.24

Batch request: protein stability index for each of the following sequences.
1. PNALKPLSESLRLVDDD [RRP6]
2. TLSHLRRTNTPIGRDGK [RPB2]
3. LGLLTPEVVELCQKSPV [FAS2]
4. GHNDWVSQVRVVPNEKA [ASC1]
5. GINNLSEIWDVSRGQSA [PRP8]
6. EPPAGVALPPGSNYNPY [CYT1]

result:
3.34
2.26
2.73
2.85
2.67
3.13

Batch request: protein stability index for each of the following sequences.
1. GILYMGQGEQVDDVLET [RPN1]
2. TTQRRYEKAQKDLENAQ [SMC1]

result:
1: 1.19; 2: 3.31

---

method: protein stability index of a GFP-peptide fusion (yeast GPS) (PSI 1-4); higher = more stable; sorted into four equal gates, so the index is relative within each strain
measurement setup: san1∆
metric: protein stability index
One number for each entry.

Before answering, review these 5 worked examples.
chain="ICIVGGYDDFQEEGSFE [FAS2]" recorded_value=3.5
chain="TTGISSTGAADGGYNAQ [SMC2]" recorded_value=3.23
chain="DEEYPVKVKVSYQKLLK [PRP8]" recorded_value=1.91
chain="IRKQPDDIINNDEPSHK [SIR2]" recorded_value=2.94
chain="GPGGQAALRALARSGLR [RPS14B]" recorded_value=2.22

Batch request: protein stability index for each of the following sequences.
1. GEITKTENEKFISYHDK [NUT1]
2. RAPKANGALDPKMGVSS [RPO31]
3. SLQDNSAAINNEDARAI [RPN4]

result:
[3.39, 3.05, 2.94]

---

method: protein stability index of a GFP-peptide fusion (yeast GPS) (PSI 1-4); higher = more stable; sorted into four equal gates, so the index is relative within each strain
measurement setup: san1∆
What protein stability index was measured for each of the following?

Before answering, review these 10 worked examples.
chain="VNWLAYTYLYVRMLASP [BRR2]" metric="protein stability index" recorded_value=1.31
chain="ERNAAYQKEYETAERNI [RPL7A]" metric="protein stability index" recorded_value=2.48
chain="PVAKWFVKFITYLTQEI [SIN4]" metric="protein stability index" recorded_value=1.76
chain="ATYSNEFKCMSVITAQQ [YGL100W/SEH1]" metric="protein stability index" recorded_value=1.46
chain="NSNTTNQNSSTGAGAFG [YJL041W/NSP1]" metric="protein stability index" recorded_value=3.03
chain="TLGNQMLSAHNIIESIA [YJR042W/NUP85]" metric="protein stability index" recorded_value=2.53
chain="NSSEEDKKKGQNVTSET [ITC1]" metric="protein stability index" recorded_value=3.06
chain="ELRFPSPTPIQRITIPN [PRP28]" metric="protein stability index" recorded_value=1.85
chain="ADTIDHDELIDSIPRDV [YGL172W/NUP49]" metric="protein stability index" recorded_value=3.07
chain="LSATQFTQPALTLMEKA [FAS1]" metric="protein stability index" recorded_value=2.7

Batch request: protein stability index for each of the following sequences.
1. PELGDKFSSRHGQKGVC [RET1]
2. VKLGLNSKMPTRFPPAV [PRP8]
3. RTKNLVSKMEKAEKTLK [SMC4]

result:
1. 2.99
2. 2.85
3. 3.21

query: Output measured protein stability index for this item: REYLEEYKSLFVVGVDN [RPP0]
result: 2.91

---

method: protein stability index of a GFP-peptide fusion (yeast GPS) (PSI 1-4); higher = more stable; sorted into four equal gates, so the index is relative within each strain
measurement setup: pdr5∆
What protein stability index was measured for each of the following?
One number for each entry.

Before answering, review these 5 worked examples.
chain="ACHVEVPYVLMGQIATF [COB]" recorded_value=1.98
chain="NKEMETQRIMTNVIAFA [YLR018C/POM34]" recorded_value=2.46
chain="RNSYPASFYSVNTEKKT [RPN3]" recorded_value=3.06
chain="IKILGSEGYQKTFSRLD [RPN4]" recorded_value=1.55
chain="QVENMKWDFAKDIKGYG [PRE4]" recorded_value=1.54

Batch request: protein stability index for each of the following sequences.
1. NLGIPKIAYRGVKDCQE [SSN2]
2. QPEVAVKAAINFSNVTD [YIL149C/MLP2]
3. KNGNEYNEFLYSKAGRE [QCR8]
4. GDLASLVLLNGRLRNKS [RPP1]
5. LSIKNSFIINFISNLPN [NUT1]

result:
1.58
2.44
3
2.85
1.81

Batch request: protein stability index for each of the following sequences.
1. EKKDDNSSKPAFSFGAK [YJL041W/NSP1]
2. TAMKKVEDGNILVFQVS [RPL25]
3. VSLVVNFQISKKMDDYI [PRP28]
4. YQSPTIFKIVQSRLMST [MED6]

result:
1: 1.86; 2: 2.48; 3: 2.05; 4: 1.59
